Each recorded value in this set is attributed to the supplement of paper PMC10126150.

system: ATP; assay: switch fluorescence ratio, 500 uM ATP over buffer (Cy3 cluster intensity, sum of 5 cycles each) (fold (ratio)); higher = stronger signal-on switching upon ATP binding; sequences stand for … in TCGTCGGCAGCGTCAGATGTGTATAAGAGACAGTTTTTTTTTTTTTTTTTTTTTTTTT…TC; conditions: aptamer strand: ATP DNA aptamer (quencher-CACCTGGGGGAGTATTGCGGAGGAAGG + anchor), 100 nM annealed; ATP concentration: 500 uM;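 note: ATP exposure 15 min at 22 °C before imaging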
READOUT: switch fluorescence ratio
Please respond with just the number, no unit label.

The sequence ACAGGGGGGA , when measured on ATP, yielded switch fluorescence ratio of 1.05

The sequence ACGTCGGGCT , when measured on ATP, yielded switch fluorescence ratio of 1.01

The sequence TATATCTTTT , when measured on ATP, yielded switch fluorescence ratio of 1.04

The sequence CTTTATTGGA , when measured on ATP, yielded switch fluorescence ratio of 0.971

The sequence GATAATGGTT , when measured on ATP, yielded switch fluorescence ratio of 0.964

The sequence CATTATTTGG , when measured on ATP, yielded switch fluorescence ratio of 1

The sequence CGTCGGAATG , when measured on ATP, yielded switch fluorescence ratio of 1.09

The sequence AATGATATTG , when measured on ATP, yielded switch fluorescence ratio of 0.998

The sequence TTTAGTGGTT , when measured on ATP, yielded switch fluorescence ratio of 1.02

The sequence TACCGGGGGT , when measured on ATP, yielded switch fluorescence ratio of 1.63

The sequence GGGTTGGAGG , when measured on ATP, yielded switch fluorescence ratio of 0.995

The sequence TATGTAAGGG , when measured on ATP, yielded switch fluorescence ratio of 1.01

The sequence ACCGGTTATT , when measured on ATP, yielded switch fluorescence ratio of 1

The sequence TCTCGGCGGA , when measured on ATP, yielded switch fluorescence ratio of 1.02

The sequence ACCTCGGTCG , when measured on ATP, yielded switch fluorescence ratio of 0.983

The sequence TTCGGGGGGA , when measured on ATP, yielded switch fluorescence ratio of 1.04

The sequence GGGCGCGAAC , when measured on ATP, yielded switch fluorescence ratio of 1.06

The sequence AATGGTAGAA , when measured on ATP, yielded switch fluorescence ratio of 0.986
